Target system: T1, PDZD7 first PDZ domain with its C-terminal extension (PDZ1ext construct; A81 to E192) (mouse)
T1 sequence (E9Q9W7 81-192, looked up): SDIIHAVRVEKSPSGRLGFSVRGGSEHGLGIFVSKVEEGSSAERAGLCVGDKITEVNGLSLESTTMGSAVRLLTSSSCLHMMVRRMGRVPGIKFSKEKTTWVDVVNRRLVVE
Method summary: NMR titration; 1H-15N HSQC chemical shift perturbations of the labelled PDZ construct on addition of ADGRV1pbm peptide; Tris HCl pH 7.5 (50 mM), 25°C; apparent Kd, mean over at least 10 shifting peaks
Property name: Kd
Answer format reminder: number followed by unit.

Look up Kd for this binder: VELRRIPIADTHL (ADGRV1, last 13 residues, free C-terminal carboxylate as printed (-COOH); The other ADGRV1 constructs are murine) [ADGRV1pbm peptide (last 13 residues of ADGRV1, with its PDZ binding motif)]
47 µM
